Test system: Streptococcus pneumoniae
MEASUREMENT PROTOCOL: microbe, parasite or virus in culture
CONDITION DETAILS: SV1
Description: Antibacterial activity against Streptococcus pneumoniae SV1 SP3
PARAMETER MEASURED: MIC (µg/mL)
All answers are understood in µg/mL, so give the number only.

Solved entries:
- CNc1n[nH]c2c1CCCc1cc(N3C[C@H](CNC(C)=O)OC3=O)ccc1-2: 0.5
- CC(=O)NC[C@H]1CN(c2ccc3c(c2)CCCc2c(NC(C)C)n[nH]c2-3)C(=O)O1: 0.5
- CC(=O)NC[C@H]1CN(c2ccc3c(c2)CCCc2c(NCCc4ccc(O)cc4)n[nH]c2-3)C(=O)O1: 0.5
- CC(=O)NC[C@H]1CN(c2ccc3c(c2)CCCc2c(N)n[nH]c2-3)C(=O)O1: 0.5

API: the following record is the query input.
Given item COCCNc1n[nH]c2c1CCCc1cc(N3C[C@H](CNC(C)=O)OC3=O)ccc1-2 , the value recorded as its MIC is 1

---

MEASUREMENT PROTOCOL: physchem
CONDITION DETAILS: potassium phosphate buffer, pH 6.5
Description: Aqueous solubility in potassium phosphate buffer at pH 6.5 by laser nephrometry
solubility kinetic overview

Given item CC(=O)NC[C@H]1CN(c2ccc3c(c2)CCCc2c(NCCN)n[nH]c2-3)C(=O)O1 , the value recorded as its solubility kinetic is > 0.07 mg/mL

Given item CC(=O)NC[C@H]1CN(c2ccc3c(c2)CCCc2c(NCCCN)n[nH]c2-3)C(=O)O1 , the value recorded as its solubility kinetic is > 0.07 mg/mL

Given item CNc1n[nH]c2c1CCCc1cc(N3C[C@H](CNC(C)=O)OC3=O)ccc1-2 , the value recorded as its solubility kinetic is > 0.07 mg/mL

---

MIC overview
System: Streptococcus pneumoniae
MEASUREMENT PROTOCOL: microbe, parasite or virus in culture
CONDITION DETAILS: SV1

Solved entries:
• CC(=O)NC[C@H]1CN(c2ccc3c(c2)CCCc2c(NCCCN)n[nH]c2-3)C(=O)O1 = 4 µg/mL
• COc1ccc(CNc2n[nH]c3c2CCCc2cc(N4C[C@H](CNC(C)=O)OC4=O)ccc2-3)cc1 = 0.5 µg/mL
• CC(=O)NC[C@H]1CN(c2ccc3c(c2)CCCc2c(NCCCO)n[nH]c2-3)C(=O)O1 = 4 µg/mL

API: the following record is the query input.
Given item CC(=O)NC[C@H]1CN(c2ccc3c(c2)CCCc2c(NC(=O)CO)n[nH]c2-3)C(=O)O1 , the value recorded as its MIC is 4 µg/mL
